The values you see were collected from paper PMC4336329.

- experimentalSystem: human ether-à-go-go-related gene (hERG) potassium channel (human);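 also: peak tail current of the secondary pulse compared with the same well before compound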
- experimentSummary: primary screen, population patch clamp on CHO cells stably expressing hERG; higher = less effect of the substance
In all, about 310,000 compounds went through this assay and about 14,000 (4.5%) showed an effect of 50% or more. The effect is printed as a negative number. Many of the other results were omitted from the sample, so strong results are more common in it than they were.
Each item that follows carries a reported hERG current change (%, negative = inhibition) at 10uM.
measuredAttribute: hERG current change (%, negative = inhibition) at 10uM (%)

1) COc1ccc2ccccc2c1CNCc1ccc(C)cc1.O=C(O)C(=O)O :: -69.7
2) Cc1cccc(OCC(=O)N/N=C2/SCC(=O)N2Cc2ccco2)c1 :: -25.4
3) CCN1C(C(=O)c2ccccc2)=C(Nc2ccccc2C)c2ccccc2S1(=O)=O :: -4.84
4) O=C(COc1ccc(Br)cc1)N/N=C1/SCC(=O)N1Cc1ccco1 :: -59.8
5) COc1ccc(CCNCc2c(OC)ccc3ccccc23)cc1.O=C(O)C(=O)O :: -44.9

====

- experimentalSystem: human ether-à-go-go-related gene (hERG) potassium channel (human);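 also: peak tail current of the secondary pulse compared with the same well before compound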
- experimentSummary: primary screen, population patch clamp on CHO cells stably expressing hERG; higher = less effect of the substance
In all, about 310,000 compounds went through this assay and about 14,000 (4.5%) showed an effect of 50% or more. Effects have a minus sign here. The full list was thinned out, with strong results kept by preference.
// reported hERG current change (%, negative = inhibition) at 10uM per item
measuredAttribute: hERG current change (%, negative = inhibition) at 10uM (%)

1) CCOC(=O)CNC(=O)c1cnc(Nc2ccccc2OC)c2ccccc12 :: 5.33
2) C[C@]12CCC3C(CC[C@H]4CCCC[C@]34C)C1CC[C@@]2(O)CNCCO (stereo partly drawn) :: 15.6
3) CC(C)c1ccc(N2C=Nc3ccc(C(C)C)cc3C2)cc1 :: -9.45
4) CCOc1ccc(N2C=Nc3ccc(OCC)cc3C2)cc1 :: -63.9
5) CCC(=O)OCc1cc2cccc(C)c2[nH]c1=O :: -1.03
6) CCOc1ccc(N2Cc3ccccc3C2)cc1 :: -2.48

====

- experimentalSystem: human ether-à-go-go-related gene (hERG) potassium channel (human, UniProt Q12809);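 also: peak tail current of the secondary pulse compared with the same well before compound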
- Sequence (Q12809 whole entry, looked up): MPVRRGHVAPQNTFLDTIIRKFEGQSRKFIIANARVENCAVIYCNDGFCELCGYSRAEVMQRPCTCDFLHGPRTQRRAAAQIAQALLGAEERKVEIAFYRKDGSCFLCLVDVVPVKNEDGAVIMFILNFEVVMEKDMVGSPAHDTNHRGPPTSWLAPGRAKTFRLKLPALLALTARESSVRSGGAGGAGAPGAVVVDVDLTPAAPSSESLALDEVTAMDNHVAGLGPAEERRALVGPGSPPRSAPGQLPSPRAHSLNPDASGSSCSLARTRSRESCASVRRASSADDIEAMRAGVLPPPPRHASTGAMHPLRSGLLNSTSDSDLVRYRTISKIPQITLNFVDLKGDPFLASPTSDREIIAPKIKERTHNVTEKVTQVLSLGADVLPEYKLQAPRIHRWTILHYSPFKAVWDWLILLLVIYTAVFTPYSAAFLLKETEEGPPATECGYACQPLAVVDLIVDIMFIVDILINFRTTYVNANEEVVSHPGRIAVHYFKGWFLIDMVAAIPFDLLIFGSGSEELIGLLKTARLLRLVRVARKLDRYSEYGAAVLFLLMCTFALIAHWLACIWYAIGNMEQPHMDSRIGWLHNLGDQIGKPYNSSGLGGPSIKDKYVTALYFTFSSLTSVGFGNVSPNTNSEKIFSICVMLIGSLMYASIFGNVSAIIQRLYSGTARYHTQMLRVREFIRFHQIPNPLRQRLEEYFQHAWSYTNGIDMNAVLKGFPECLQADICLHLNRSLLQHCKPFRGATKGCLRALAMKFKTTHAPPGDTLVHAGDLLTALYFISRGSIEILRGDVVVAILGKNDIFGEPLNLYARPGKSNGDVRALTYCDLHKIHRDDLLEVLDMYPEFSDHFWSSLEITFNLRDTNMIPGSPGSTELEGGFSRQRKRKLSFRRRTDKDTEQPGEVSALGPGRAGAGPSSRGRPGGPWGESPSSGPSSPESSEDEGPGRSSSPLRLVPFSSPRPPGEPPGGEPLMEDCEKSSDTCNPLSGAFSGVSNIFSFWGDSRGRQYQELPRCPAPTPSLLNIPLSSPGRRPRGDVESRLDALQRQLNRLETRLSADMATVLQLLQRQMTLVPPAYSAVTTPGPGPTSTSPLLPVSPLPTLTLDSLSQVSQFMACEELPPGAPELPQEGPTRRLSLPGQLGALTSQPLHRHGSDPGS
- experimentSummary: primary screen, population patch clamp on CHO cells stably expressing hERG; higher = less effect of the substance
The campaign covered roughly 310,000 compounds. About 14,000 (4.5%) showed an effect of 50% or more. Effects have a minus sign here. Shown is part of a subset that was picked to be rich in strong results.
measuredAttribute: hERG current change (%, negative = inhibition) at 10uM (%)

1. CC(C)CNC(=O)C1CCCN(S(=O)(=O)c2ccc(-n3cnnn3)cc2)C1 (centres unmarked) :: -0.697
2. Cc1onc(-c2ccccc2)c1C(=O)N1CCN(S(=O)(=O)c2ccccc2Br)CC1 :: -1.99
3. CCC(=O)NC(=S)Nc1ccc(NC(=O)COc2ccc(Cl)cc2Cl)cc1 :: 10.7
4. COc1ccccc1NC(=O)Nc1ncccc1C :: -1.09
5. Cc1cc(S(=O)(=O)NCCc2ccccc2)ccc1-n1cnnn1 :: -17.1
6. COc1ccc(CNc2nc3nc(C)c(Cl)c(C)n3n2)cc1OC :: -7.54
7. COCCN(C(C)=O)c1nnc(-c2cnccn2)s1 :: 6.11
8. COc1cccc(CNc2nc3nc(C)cc(C)n3n2)c1 :: -15.6
9. O=S(=O)(NCCc1ccccc1)c1ccc(-n2cnnn2)cc1 :: -56.7
10. O=C(Nc1nc(-c2ccc(Cl)cc2)cs1)c1cccnc1 :: 5.68
11. N/C(=N\OC(=O)CSc1ccccc1)c1ccncc1 :: 0.55
